Data credit: paper PMC5540273

test system: BRSK1; details: concentration: 1 μM, replicates: in singlicate; n = 1;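 note: KINOMEscan kinase panel screen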
Reported %Inh values are given for each entry in this list.
State the answer as a number, implicitly in %.

- COMPOUND: "Cc1c2ccc(N(C)c3ccnc(Nc4cccc(S(N)(=O)=O)c4)n3)cc2nn1Cc1ccccc1.Cl.Cl [GW787226]"
  OUTPUT UNIT: "%"
  RESULT: 0
- COMPOUND: "O=C(NCCNc1ccnc(Nc2ccc(F)cc2)n1)Nc1ccccc1F [GSK1379880]"
  OUTPUT UNIT: "%"
  RESULT: 0
- COMPOUND: "N#Cc1c(N2CCOCC2)sc(-c2ccn[nH]2)c1-c1ccc(Cl)cc1"
  OUTPUT UNIT: "%"
  RESULT: 0

Q. Param item = Fc1ccc(-c2ncn(CCCN3CCOCC3)c2-c2cccnc2)cc1 [SB-211743] ; retrieve measured %Inh.
A. 0

Q. Param item = Cc1nnc(-c2ccc3ncc(-c4ccc(S(C)=O)cc4)n3c2)o1 (stereo not drawn) ; retrieve measured %Inh.
A. 14

###

tested on: PKMYT1; details: concentration: 1 μM, replicates: in singlicate; n = 1
TEST READOUT: %Inh (%)
State the answer as a number, implicitly in %.

- MOL: "O=C(NCCNc1ccnc(Nc2ccc(F)cc2)n1)Nc1ccccc1F"
  OUTPUT UNIT: "%"
  RESULT: 9
- MOL: "Cn1cc(-c2ccc3c(c2)CCN3C(=O)Cc2ccccc2Cl)c2c(N)ncnc21"
  OUTPUT UNIT: "%"
  RESULT: 18
- MOL: "Cl.Nc1ncnc2occ(-c3ccc(NC(=O)Nc4cc(C(F)(F)F)ccc4F)cc3)c12"
  OUTPUT UNIT: "%"
  RESULT: 0
- MOL: "O=c1cc(N2CCOCC2)nc2n(Cc3cccc(C(F)(F)F)c3)ccn12"
  OUTPUT UNIT: "%"
  RESULT: 0

Q. Param item = "O=C(Nc1n[nH]c2cc(-c3cccc(F)c3)ccc12)C1CC1" ; retrieve measured %Inh.
A. 1

###

tested on: NEK1; conditions: concentration: 1 μM, replicates: in singlicate; n = 1
Reported %Inh values are given for each entry in this list.
State the answer as a number, implicitly in %.

Recorded results for 2 molecules are shown here.
- MOL: "CCc1ccnc(/C=C/c2n[nH]c3cc(Sc4ccccc4C(=O)NC)ccc23)c1"
  TEST READOUT: "%Inh"
  OUTPUT UNIT: "%"
  RESULT: 0
- MOL: "Fc1ccc(-c2ncn(CCCN3CCOCC3)c2-c2ccccn2)cc1"
  TEST READOUT: "%Inh"
  OUTPUT UNIT: "%"
  RESULT: 0

Turning to the following molecule.
Q. Param item = "[2H]C([2H])(c1cccc(C(F)(F)F)c1C)n1ccn2c(=O)nc(N3CCOCC3)cc12" ; retrieve measured %Inh.
A. 0

###

test system: CSK; settings: concentration: 1 μM, replicates: in singlicate; n = 1
TEST READOUT: %Inh (%)
State the answer as a number, implicitly in %.

- MOL: "CCc1nc(-c2cccc(C)c2)c(-c2ccnc(NCc3ccccc3)c2)s1"
  RESULT: 0
- MOL: "O=c1cc(N2CCOCC2)nc2n(Cc3cccc(C(F)(F)F)c3)ccn12"
  RESULT: 0

Turning to the following compound.
Q. Notebook: pull reported %Inh for CSK, entry "Cc1cccc(-c2nc(Nc3ccc4ncsc4c3)c3ccccc3n2)n1"
A. 3

###

system: ROCK1; conditions: concentration: 1 μM, replicates: in singlicate; n = 1
Reported %Inh values are given for each entry in this list.
Answer shape: numeric part, then the unit.

Recorded results for 8 compounds are shown here.
- COMPOUND: "Cn1cc(-c2ccc3c(c2)CCN3C(=O)Cc2ccccc2Cl)c2c(N)ncnc21 [GSK2608885]"
  TARGET DESC: "ROCK1"
  %Inh: "1%"
- COMPOUND: "COc1ccc(COc2cc(-n3cnc4ccccc43)sc2C(N)=O)cc1 [GSK1024304]"
  TARGET DESC: "ROCK1"
  %Inh: "9%"
- COMPOUND: "Nc1nccc(-c2c(-c3ccc(F)cc3)ncn2C2CCN(CC(F)(F)F)CC2)n1 [SB-236560]"
  TARGET DESC: "ROCK1"
  %Inh: "38%"
- COMPOUND: "COc1ccc(CNC(=O)NC2CCN(c3ccnc(Nc4ccc(OC)cc4)n3)C2)cc1 (centres unmarked) [GSK1379727]"
  TARGET DESC: "ROCK1"
  %Inh: "40%"
- COMPOUND: "[2H]C([2H])(c1cccc(C(F)(F)F)c1C)n1ccn2c(=O)nc(N3CCOCC3)cc12 [GSK2336394]"
  TARGET DESC: "ROCK1"
  %Inh: "8%"
- COMPOUND: "Cc1cccc(-c2nc(-c3ccc(S(C)(=O)=O)cc3)sc2-c2ccncc2)c1"
  TARGET DESC: "ROCK1"
  %Inh: "16%"
- COMPOUND: "Cn1ccc2ncnc(Oc3ccc(NC(=O)Nc4ccncc4)c(Cl)c3)c21"
  TARGET DESC: "ROCK1"
  %Inh: "0%"
- COMPOUND: "Cc1cccc(-c2nc(Nc3ccc4ncsc4c3)c3ccccc3n2)n1 [GW867588]"
  TARGET DESC: "ROCK1"
  %Inh: "45%"

Q. Notebook: pull reported %Inh for ROCK1, entry NCC(NC(=O)c1cc(-c2cn[nH]c2)c(-c2ccnc3[nH]ccc23)s1)c1ccccc1.O=C(O)C(F)(F)F.O=C(O)C(F)(F)F (centres unmarked) [GSK1325775]
A. 100%

Q. Notebook: pull reported %Inh for ROCK1, entry CN(C(=O)c1ccc(-c2cc(-c3c[nH]nc3-c3ccccn3)ccn2)cc1)C1CCOCC1 [GW810083]
A. 31%

###

system: YSK1; construct: gene STK25; details: concentration: 1 μM, replicates: in singlicate; n = 1
TEST READOUT: %Inh

- COMPOUND: "NS(=O)(=O)c1cccc(-c2ccc3ncc(N4CCOCC4)nc3c2)c1"
  %Inh: "15%"
- COMPOUND: "Cl.Oc1cccc(Nc2ccnc3cc(-c4ccncc4)ccc23)c1"
  %Inh: "7%"
- COMPOUND: "CN(C(=O)c1ccc(-c2cc(-c3c[nH]nc3-c3ccccn3)ccn2)cc1)C1CCOCC1"
  %Inh: "0%"

Q. Param item = "Fc1ccc(-c2ncn(CCCN3CCOCC3)c2-c2ccccn2)cc1" ; retrieve measured %Inh.
A. 0%

Q. Param item = "CC(C)Oc1ccc2c(-c3ccnc(Nc4ccc(N5CCN(C)CC5)cc4)n3)cnn2n1" ; retrieve measured %Inh.
A. 71%

Q. Param item = "O=C(Nc1n[nH]c2cc(-c3cccc(F)c3)ccc12)C1CC1" ; retrieve measured %Inh.
A. 0%

Q. Param item = "NS(=O)(=O)c1cccc(-c2ccc3nccc(-c4cccc(S(N)(=O)=O)c4)c3c2)c1" ; retrieve measured %Inh.
A. 0%

Q. Param item = "O=C(NCCNc1ccnc(Nc2ccc(F)cc2)n1)c1cc2ccccc2s1" ; retrieve measured %Inh.
A. 0%

Q. Param item = "O=C(NOCC1CC1)c1ccc(F)c(F)c1Nc1ccc(I)cc1Cl" ; retrieve measured %Inh.
A. 0%

Q. Param item = "CCCCCc1nc2c(N)ncnc2n1CCCCC" ; retrieve measured %Inh.
A. 12%

Q. Param item = Cc1nnc(-c2ccc3occ(-c4ccc(C(C)O)cc4)c3c2)o1 (stereo not drawn) ; retrieve measured %Inh.
A. 0%

Q. Param item = "COC(=O)Nc1nc2cc(Oc3ccc(NC(=O)Nc4cc(F)ccc4F)cc3)ccc2[nH]1.Cl" ; retrieve measured %Inh.
A. 13%

Q. Param item = "N#Cc1c(N2CCOCC2)sc(-c2ccn[nH]2)c1-c1ccc(Cl)cc1" ; retrieve measured %Inh.
A. 0%

Q. Param item = "CCc1ccnc(/C=C/c2n[nH]c3cc(Sc4ccccc4C(=O)NC)ccc23)c1" ; retrieve measured %Inh.
A. 0%

Q. Param item = "COc1ccc(S(=O)(=O)NC2CCN(c3cc(C)nc(Nc4cccc(C#N)c4)n3)CC2)cc1.O=C(O)C(F)(F)F" ; retrieve measured %Inh.
A. 20%

Q. Param item = COc1ccc(Nc2nccc(N3CCC(NC(=O)Nc4cccc(C(C)=O)c4)C3)n2)cc1 (stereo not drawn) ; retrieve measured %Inh.
A. 0%

Q. Param item = "CN1c2ccc(CNc3ccc(F)cc3)cc2-c2c(cnn2C)S1(=O)=O" ; retrieve measured %Inh.
A. 0%

Q. Param item = "Cl.Nc1ncnc2occ(-c3ccc(NC(=O)Nc4cc(C(F)(F)F)ccc4F)cc3)c12" ; retrieve measured %Inh.
A. 50%

###

test system: CHEK1; details: concentration: 1 μM, replicates: in singlicate; n = 1
Reported %Inh values are given for each entry in this list.
State the answer as a number, implicitly in %.

Recorded results for 6 molecules are shown here.
- MOLECULE: "N#Cc1ccc(-c2cc(-c3c[nH]nc3-c3ccccn3)ccn2)cc1 [GW693028]"
  TARGET DESC: "CHEK1"
  OUTPUT UNIT: "%"
  %Inh: 0
- MOLECULE: "O=C1NC(=O)C(N2CCc3ccccc32)=C1c1cccc(Cl)c1 [SB-408010]"
  TARGET DESC: "CHEK1"
  OUTPUT UNIT: "%"
  %Inh: 0
- MOLECULE: "Cc1c(Cn2c(C)nn3c(=O)cc(N4CCOC(C)C4)nc23)cccc1C(F)(F)F (centres unmarked) [GSK2344444]"
  TARGET DESC: "CHEK1"
  OUTPUT UNIT: "%"
  %Inh: 10
- MOLECULE: "Nc1nccc(-c2c(-c3ccc(F)cc3)ncn2C2CCN(CC(F)(F)F)CC2)n1 [SB-236560]"
  TARGET DESC: "CHEK1"
  OUTPUT UNIT: "%"
  %Inh: 0
- MOLECULE: "Cl.Oc1cccc(Nc2ccnc3cc(-c4ccncc4)ccc23)c1 [GW494601]"
  TARGET DESC: "CHEK1"
  OUTPUT UNIT: "%"
  %Inh: 0
- MOLECULE: "NS(=O)(=O)c1cccc(-c2ccc3ncc(N4CCOCC4)nc3c2)c1 [GSK1535721]"
  TARGET DESC: "CHEK1"
  OUTPUT UNIT: "%"
  %Inh: 0

Q. Param item = COc1ccc(S(=O)(=O)NC2CCN(c3cc(C)nc(Nc4cccc(C#N)c4)n3)CC2)cc1.O=C(O)C(F)(F)F [GSK1653539] ; retrieve measured %Inh.
A. 0

Q. Param item = c1ccc(-c2cc(-c3c[nH]nc3-c3ccccn3)ccn2)cc1 [GW576604] ; retrieve measured %Inh.
A. 0

Q. Param item = O=C(NCCNc1ccnc(Nc2ccc(F)cc2)n1)Nc1ccccc1F [GSK1379880] ; retrieve measured %Inh.
A. 11

Q. Param item = C[C@@H](Oc1cc(-n2cnc3ccc(NC(=O)NC(C)(C)C)cc32)sc1C(N)=O)c1ccccc1Cl [GSK346294] ; retrieve measured %Inh.
A. 10

Q. Param item = CC(C)Oc1ccc2c(-c3ccnc(Nc4ccc(N5CCN(C)CC5)cc4)n3)cnn2n1 [GW696155] ; retrieve measured %Inh.
A. 0

Q. Param item = Cc1cccc(Cn2ccn3c(=O)cc(N4CCOCC4)nc23)c1 [GSK2297542] ; retrieve measured %Inh.
A. 13

Q. Param item = "Cn1ccc2ncnc(Oc3ccc(NC(=O)Nc4ccncc4)c(Cl)c3)c21" ; retrieve measured %Inh.
A. 0

Q. Param item = CN(C(=O)c1ccc(-c2cc(-c3c[nH]nc3-c3ccccn3)ccn2)cc1)C1CCOCC1 [GW810083] ; retrieve measured %Inh.
A. 0

Q. Param item = COC(=O)Nc1nc2cc(Oc3ccc(NC(=O)Nc4cc(F)ccc4F)cc3)ccc2[nH]1.Cl [GW701424] ; retrieve measured %Inh.
A. 0

Q. Param item = NS(=O)(=O)CCc1cccc(Nc2nccc(-c3c(-c4cccc(NC(=O)c5c(F)cccc5F)c4)nn4ccccc34)n2)c1 [GSK336735] ; retrieve measured %Inh.
A. 4

Q. Param item = COc1ccc(Nc2nccc(N3CCC(NC(=O)Nc4cc(C)ccc4C)C3)n2)cc1 (centres unmarked) [GSK1379741] ; retrieve measured %Inh.
A. 0

Q. Param item = CNc1ncnc2[nH]ncc12 [SKF-18355] ; retrieve measured %Inh.
A. 0

Q. Param item = "Cc1ccc(C(=O)NCC(N)=O)cc1-n1c(C)cc(OCc2ccc(F)cc2F)c(Br)c1=O" ; retrieve measured %Inh.
A. 17

Q. Param item = Fc1ccc(-c2nn3c(OCC(F)(F)F)cccc3c2-c2ccncc2)cc1 [GW514784] ; retrieve measured %Inh.
A. 0

Q. Param item = "CSc1ccc(-c2cc3ncnc(SCC(=O)O)c3s2)cc1" ; retrieve measured %Inh.
A. 0

Q. Param item = COc1cc2ncn(-c3cc(OCc4sccc4Cl)c(C(N)=O)s3)c2cc1OC [GSK448459] ; retrieve measured %Inh.
A. 0

Q. Param item = "CCc1ccnc(/C=C/c2n[nH]c3cc(Sc4ccccc4C(=O)NC)ccc23)c1" ; retrieve measured %Inh.
A. 0

Q. Param item = Cn1cc(-c2ccc3c(c2)CCN3C(=O)Cc2ccccc2Cl)c2c(N)ncnc21 [GSK2608885] ; retrieve measured %Inh.
A. 35
